Tested on: A549
Assay: Antiproliferative activity against human A549 cells after 48 hrs by MTT assay
Assay type: functional, cell-based
Settings: A549, 48 h
readout: pIC50
Answers are plain numbers, as −log10 of the molar value.

Use the examples below as a reference point.
Give the measured pIC50 for O=C(/C=C\Nc1ccc(O)cc1)c1cn(-c2ccccc2)nc1-c1ccc(Cl)cc1
5.72

Give the measured pIC50 for COc1ccc(-c2nn(-c3ccccc3)cc2C(=O)/C=C\Nc2ccc(Cl)cc2)cc1
5.53

Give the measured pIC50 for COc1cc(N/C=C\C(=O)c2cn(-c3ccccc3)nc2-c2ccc(Cl)cc2)cc(OC)c1OC
5.25

Give the measured pIC50 for COc1ccc(N/C=C\C(=O)c2cn(-c3ccccc3)nc2-c2ccc(OC)cc2)cc1
5.17

Give the measured pIC50 for COc1cc(N/C=C\C(=O)c2cn(-c3ccccc3)nc2-c2ccc(F)cc2)cc(OC)c1OC
5.03

Give the measured pIC50 for O=C(/C=C\Nc1ccc(Cl)cc1)c1cn(-c2ccccc2)nc1-c1ccccc1
4.85

Provide each entry's pIC50 from the list below.
1. COc1ccc(N/C=C\C(=O)c2cn(-c3ccccc3)nc2-c2ccc(Cl)cc2)cc1
2. COc1ccc(N/C=C\C(=O)c2cn(-c3ccccc3)nc2-c2cc(OC)c(OC)c(OC)c2)cc1
3. COc1cc(N/C=C\C(=O)c2cn(-c3ccccc3)nc2-c2cc(OC)c(OC)c(OC)c2)cc(OC)c1OC
4. COc1cc(-c2nn(-c3ccccc3)cc2C(=O)/C=C\Nc2ccc(O)cc2)cc(OC)c1OC
5. COc1ccc(-c2nn(-c3ccccc3)cc2C(=O)/C=C\Nc2cc(OC)c(OC)c(OC)c2)cc1

[5.19, 5.32, 5.10, 5.50, 4.95]

----------
System: HaCaT
Assay: Antiproliferative activity against human HaCaT cells after 48 hrs by MTT assay
Format: cell-based
readout: pIC50
Answers are plain numbers, as −log10 of the molar value.

Give the measured pIC50 for COc1cc(-c2nn(-c3ccccc3)cc2C(=O)/C=C\Nc2ccc(O)cc2)cc(OC)c1OC
4.75

Provide each entry's pIC50 from the list below.
1. COc1ccc(N/C=C\C(=O)c2cn(-c3ccccc3)nc2-c2ccc(F)cc2)cc1
2. COc1cc(N/C=C\C(=O)c2cn(-c3ccccc3)nc2-c2ccc(Cl)cc2)cc(OC)c1OC
3. COc1cc(-c2nn(-c3ccccc3)cc2C(=O)/C=C\Nc2ccc(Cl)cc2)cc(OC)c1OC

1. 4.71
2. 4.33
3. 4.52

Provide each entry's pIC50 from the list below.
1. COc1cc(-c2nn(-c3ccccc3)cc2C(=O)/C=C\Nc2ccc(F)cc2)cc(OC)c1OC
2. O=C(/C=C\Nc1ccc(O)cc1)c1cn(-c2ccccc2)nc1-c1ccccc1
3. O=C(/C=C\Nc1ccc(O)cc1)c1cn(-c2ccccc2)nc1-c1ccc(Cl)cc1

[4.59, 4.35, 4.65]

----------
Test: Selectivity ratio of IC50 for human HaCaT cells to IC50 for human A549 cells
Assay type: ADME, cell-based
Conditions: HaCaT cells versus A549 cells, read-out: Ratio IC50
For each record, write down the corresponding selectivity ratio.
Answers are plain numbers.

Use the examples below as a reference point.
Give the measured selectivity ratio for O=C(/C=C\Nc1ccc(O)cc1)c1cn(-c2ccccc2)nc1-c1ccc(F)cc1
10

Give the measured selectivity ratio for O=C(/C=C\Nc1ccc(O)cc1)c1cn(-c2ccccc2)nc1-c1ccc(Cl)cc1
10

// next item, selectivity ratio requested
Give the measured selectivity ratio for COc1ccc(-c2nn(-c3ccccc3)cc2C(=O)/C=C\Nc2ccc(O)cc2)cc1
10
